Please go through the items and note down their Viscosity.
- EXPERIMENT: Viscosity of ISIS antisense oligonucleotides, micro-viscometer at 25 °C (Example 47)
- Format: physicochemical
- CONDITION NOTES: in water, micro-viscometer at 25° C., at the concentration of the same line
Strand notation (5' to 3'): a small letter for the sugar, then the base; units joined by * are phosphorothioate-linked, units joined directly phosphodiester-linked; [ ] holds rarer units or linkages, { } end groups; capitals alone tell only the bases. e = 2'-O-(2-methoxyethyl) (MOE); [5mC] = 5-methylcytosine; d = 2'-deoxy (DNA)
One number for each entry, in cP.

Please look up its Viscosity: 449710 (antisense e[5mC]*eA*e[5mC]*dA*dG*dT*dT*dT*d[5mC]*dT*dG*dG*d[5mC]*eA*eG*eG) [compound 449710] 7

Same for 416863 (antisense CAGCGGACGGCATTGGTGCA; 5-10-5 gapmer, further chemistry not given here) [compound 416863] 9

# batch size: 4; output Viscosity per entry
1. 416861 (antisense GCGGACGGCATTGGTGCACA; 5-10-5 gapmer, further chemistry not given here) [compound 416861]
2. 445504 (antisense eG*eG*e[5mC]*eA*eT*eT*dG*dG*dT*dG*d[5mC]*dA*d[5mC]*dA*eG*eT*eT*eT*e[5mC]*eT) [compound 445504]
3. 449708 (antisense eA*e[5mC]*eA*dG*dT*dT*dT*d[5mC]*dT*dG*dG*e[5mC]*eA*eG) [compound 449708]
4. 416867 (antisense ACTGGCAGCGGACGGCATTG; 5-10-5 gapmer, further chemistry not given here) [compound 416867]

1: 14; 2: 20; 3: 9; 4: 8

# batch size: 8; output Viscosity per entry
1. 412223 (antisense ACAGTTTCTGGCAGGCCTCG; 5-10-5 MOE gapmer, further chemistry not given here) [compound 412223]
2. 445505 (antisense e[5mC]*eG*eG*e[5mC]*eA*eT*dT*dG*dG*dT*dG*d[5mC]*dA*d[5mC]*eA*eG*eT*eT*eT*e[5mC]) [compound 445505]
3. 445498 (antisense eG*eG*eT*eG*e[5mC]*eA*d[5mC]*dA*dG*dT*dT*dT*d[5mC]*dT*eG*eG*e[5mC]*eA*eG*eG) [compound 445498]
4. 416848 (antisense CACAGTTTCTGGCAGGCCTC; 5-10-5 gapmer, further chemistry not given here) [compound 416848]
5. 445530 (antisense eG*e[5mC]*eA*eT*eT*dG*dG*dT*dG*d[5mC]*dA*d[5mC]*dA*eG*eT*eT*eT*e[5mC]) [compound 445530]
6. 416850 (antisense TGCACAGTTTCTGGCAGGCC; 5-10-5 gapmer, further chemistry not given here) [compound 416850]
7. 449707 (antisense e[5mC]*eA*e[5mC]*eA*dG*dT*dT*dT*d[5mC]*dT*dG*dG*e[5mC]*eA*eG*eG) [compound 449707]
8. 416856 (antisense GGCATTGGTGCACAGTTTCT; 5-10-5 gapmer, further chemistry not given here) [compound 416856]

1. 8
2. 9
3. 21
4. 6
5. 25
6. 67
7. 7
8. 18

Please look up its Viscosity: 412224 (antisense GCATTGGTGCACAGTTTCTG; 5-10-5 MOE gapmer, further chemistry not given here) [compound 412224] 98

====

- EXPERIMENT: Hematology assays in cynomolgus monkeys (Example 45)
- Assay type: in vivo
- CONDITION NOTES: day −5; escalating dose regimen
Please go through the items and note down their RBC count.
Numbers only, in µL⁻¹.

Worked examples, 3 substances total:
Please look up its RBC count: ISIS 416858: MOE gapmer, nucleobases 1275 to 1318 of SEQ ID NO: 1 (Table 8) (antisense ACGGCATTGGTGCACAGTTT; MOE gapmer, wing and gap sizes not given here) 5.6e+06

Same for ISIS 416850: MOE gapmer, nucleobases 1275 to 1318 of SEQ ID NO: 1 (Table 8) (antisense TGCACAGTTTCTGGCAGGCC; MOE gapmer, wing and gap sizes not given here) 5.5e+06

Same for ISIS 416864: MOE gapmer, nucleobases 1275 to 1318 of SEQ ID NO: 1 (Table 8) (antisense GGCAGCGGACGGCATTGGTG; MOE gapmer, wing and gap sizes not given here) 5.6e+06

# batch size: 2; output RBC count per entry
1. ISIS 417002: MOE gapmer, nucleobases 1275 to 1318 of SEQ ID NO: 1 (Table 8) (antisense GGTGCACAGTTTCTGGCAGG; MOE gapmer, wing and gap sizes not given here)
2. ISIS 416838: MOE gapmer, nucleobases 1018 to 1042 of SEQ ID NO: 1 (Table 6) (antisense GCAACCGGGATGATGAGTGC; MOE gapmer, wing and gap sizes not given here)

["5.6e+06", "5.6e+06"]

====

- EXPERIMENT: Tolerability in CD1 mice: liver function, ALT, AST, bilirubin, albumin (Example 33)
- CONDITION NOTES: plasma, 50 mg/kg s.c. twice a week, 4 weeks
Please go through the items and note down their ALT.
Give bare numbers, in IU/L.

Please look up its ALT: ISIS 416864: MOE gapmer, nucleobases 1275 to 1318 of SEQ ID NO: 1 (Table 8) (antisense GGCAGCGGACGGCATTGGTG; MOE gapmer, wing and gap sizes not given here) 33

Now look at this entry.
Please look up its ALT: ISIS 416858: MOE gapmer, nucleobases 1275 to 1318 of SEQ ID NO: 1 (Table 8) (antisense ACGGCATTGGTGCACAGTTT; MOE gapmer, wing and gap sizes not given here) 57

====

Please go through the items and note down their platelet count.
- EXPERIMENT: Hematology assays in cynomolgus monkeys (Example 46)
- Type: in vivo
- CONDITION NOTES: Day-5
Strand notation (5' to 3'): a small letter for the sugar, then the base; units joined by * are phosphorothioate-linked, units joined directly phosphodiester-linked; [ ] holds rarer units or linkages, { } end groups; capitals alone tell only the bases. e = 2'-O-(2-methoxyethyl) (MOE); [5mC] = 5-methylcytosine; d = 2'-deoxy (DNA)

# batch size: 4; output platelet count per entry
1. ISIS 416858: MOE gapmer, nucleobases 1275 to 1318 of SEQ ID NO: 1 (Table 8) (antisense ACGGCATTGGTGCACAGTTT; MOE gapmer, wing and gap sizes not given here)
2. ISIS 445531: 5-8-5 or 6-8-6 MOE microwalk gapmer (Table 44) (antisense eG*eG*e[5mC]*eA*eT*dT*dG*dG*dT*dG*d[5mC]*dA*d[5mC]*eA*eG*eT*eT*eT)
3. ISIS 449711: 3-8-3, 4-8-4, 2-10-2, 3-10-3 or 4-10-4 MOE microwalk gapmer (Table 46) (antisense eA*e[5mC]*dA*dG*dT*dT*dT*d[5mC]*dT*dG*dG*d[5mC]*eA*eG)
4. ISIS 449707: 3-8-3, 4-8-4, 2-10-2, 3-10-3 or 4-10-4 MOE microwalk gapmer (Table 46) (antisense e[5mC]*eA*e[5mC]*eA*dG*dT*dT*dT*d[5mC]*dT*dG*dG*e[5mC]*eA*eG*eG)

1: 433 ×100/μL; 2: 416 ×100/μL; 3: 431 ×100/μL; 4: 464 ×100/μL

Please look up its platelet count: ISIS 445522: 5-8-5 or 6-8-6 MOE microwalk gapmer (Table 44) (antisense eG*e[5mC]*eA*e[5mC]*eA*dG*dT*dT*dT*d[5mC]*dT*dG*dG*e[5mC]*eA*eG*eG*e[5mC]) 512 ×100/μL

====

Please go through the items and note down their neutrophils.
- EXPERIMENT: Hematology assays in cynomolgus monkeys (Example 45)
- Type: in vivo
- CONDITION NOTES: day 29
Please give the number followed by its unit.

Please look up its neutrophils: ISIS 416864: MOE gapmer, nucleobases 1275 to 1318 of SEQ ID NO: 1 (Table 8) (antisense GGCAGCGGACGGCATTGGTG; MOE gapmer, wing and gap sizes not given here) 44%

# batch size: 4; output neutrophils per entry
1. ISIS 417002: MOE gapmer, nucleobases 1275 to 1318 of SEQ ID NO: 1 (Table 8) (antisense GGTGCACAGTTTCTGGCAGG; MOE gapmer, wing and gap sizes not given here)
2. ISIS 416838: MOE gapmer, nucleobases 1018 to 1042 of SEQ ID NO: 1 (Table 6) (antisense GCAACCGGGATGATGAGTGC; MOE gapmer, wing and gap sizes not given here)
3. ISIS 416858: MOE gapmer, nucleobases 1275 to 1318 of SEQ ID NO: 1 (Table 8) (antisense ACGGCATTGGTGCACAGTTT; MOE gapmer, wing and gap sizes not given here)
4. ISIS 416850: MOE gapmer, nucleobases 1275 to 1318 of SEQ ID NO: 1 (Table 8) (antisense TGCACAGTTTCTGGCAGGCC; MOE gapmer, wing and gap sizes not given here)

["45%", "36%", "43%", "53%"]
